B1: minF1; a variant is named by its letters at N, in order (parent)
chain: GAGACCGCAACTGAAAAGTTGTTANNNNAANGNNNGGTTGAATTTCTGCACGTAGAAGCAAAAGGC

Variants of: B1
method: fraction ligated after 30 min (ligated reads / total reads); higher = more ligase activity
run_parameters: with F1*subA RNA substrate (template-directed ligation), 42 °C
Classes by fraction ligated: 1: < 0.005; 2: ≥ 0.005 and < 0.02; 3: ≥ 0.02

| mutation_notation | assigned_label |
| --- | --- |
| TCAATGAT | 2 |
| TCAGAGGT G32T T38G G40T | 2 |
| TAGATATG | 1 |
| TCAGAGGA G32T T38G G40T | 1 |
| TCAGAGGA G32T G36T T38G T39G G40T A41T A42T | 1 |
| TCAGAATG G32T | 2 |
| TCAGAGTG | 1 |
| TCAGAGAG G32T | 2 |
| TCAGAGGG G32T | 2 |
| CAGATGAT A24T T38G G40T | 2 |
| TCAGAGAT G32T T38G G40T | 2 |
| TAGAGATG A30T | 3 |
| TCAGAGGA G32T T38G G40T A41G | 2 |
| TAGATGAT T38G G40T | 2 |
| AGAAGATG A24C A30T | 2 |
| AGAAGATG T23A A24T A30T | 1 |
| CAGAGATG A30T | 2 |
| TCAGAGAT G32T | 1 |
| CAAAGATG A24T A30T | 2 |
| CAGATGAT T38G G40T | 2 |
| TCAGAGTG G32T | 2 |
| CAAAGATG T23A A24T A30T | 3 |
| TAAAGATG A30T | 3 |
| TCGAGATG A30T | 3 |
| TCAGTGTG | 1 |
| TCAGAGGA G32T G36T T38G G40T | 2 |
| TCAATATG | 2 |
| TGAAGATG A30T | 3 |
| TCAGGATG A30T | 3 |
| TCAGTATG | 2 |
| TCAGAGGT G32T | 1 |
| AGAAGATG A30T | 2 |
| CAGATGAT A24T | 2 |
| TCAGAATG | 2 |
| TAGATGAT T38G G40T A41G | 3 |
| AGAAGATG T23A A24C A30T | 2 |
| CAGATGAG | 2 |
| CAAAGATG A30T | 2 |
| CAGATGAG A24T | 1 |
| TAGATGTG | 1 |
| AGAAGATG A24T A30T | 2 |
| CAGATGAT T23A A24T T38G G40T | 2 |
| CGAAGATG A30T | 3 |
| TCGAGATG | 2 |
| CAGATGAT T38G G40T A41G | 2 |
| CGAAGATG A24T A30T | 3 |
| CAGATGAT A24T T38G G40T A41G | 3 |
| CAGATGAG T23A A24T | 1 |
| TAGATGAG | 1 |
| CAGATGAT T23A A24T | 3 |
| TCAGAGGA G32T G36T T38G T39G G40T A41T A42C | 1 |
| CAGAGATG T23A A24T | 2 |
| TCGATGAG | 1 |
| TAGATGAT | 1 |
| TCAGAGGT G32T T38G G40T A41G | 3 |
| CAGATATG T23A A24T | 2 |
| CAGATGTG T23A A24T | 1 |
| TCAGTGAT | 3 |
| CAGAGATG | 1 |
| TCAGAGAG | 1 |
| TCGATGAT | 3 |
| TCAGTGAT T38G G40T | 3 |
| CAGATGAT T23A A24T T38G G40T A41G | 3 |
| TCGATGAT T38G G40T | 3 |
| TCAAGATG A30T | 3 |
| TCAATGTG | 1 |
| CAGAGATG T23A A24T A30T | 3 |
| CAGAGATG A24T A30T | 2 |
| TCAGAGGA G32T G36T T38G G40T A41G | 3 |
| CGAAGATG T23A A24T A30T | 3 |
